Tested on: blood coagulation (citrated human blood plasma)
Assay: Blood coagulation (i), ketoaldehyde kept 1-2 seconds before plasma added
Type: biochemical
Settings: 1-2 seconds contact; control hard
Readout Name: clot

>  <Structure Notation>
CC(=O)CC(=O)C=O

>  <Experimental Value>
hard

$$$$
>  <Structure Notation>
O=CC(=O)CCl

>  <Experimental Value>
no

$$$$
>  <Structure Notation>
CC(=O)C=O

>  <Experimental Value>
hard

$$$$
>  <Structure Notation>
O=CC(=O)C(Cl)Cl

>  <Experimental Value>
no

$$$$
>  <Structure Notation>
O=CC(=O)Cc1ccccc1

>  <Experimental Value>
hard

$$$$
>  <Structure Notation>
O=CC(=O)c1ccccc1

>  <Experimental Value>
hard

$$$$

---

System: Candida albicans
Test: Effect on proliferation of Candida albicans, disk on agar surface (A)
Assay type: cell-based
Settings: 50 μliter, 24 hours (*)

>  <Compound>
CC(=O)C=O

>  <inhibition diameters [mm]>
10

$$$$
>  <Compound>
CC(=O)CC(=O)C=O

>  <inhibition diameters [mm]>
34

$$$$
>  <Compound>
O=CC(=O)C(Cl)Cl

>  <inhibition diameters [mm]>
32

$$$$
>  <Compound>
CCOC(C)C(=O)C=O (centres unmarked) [KE, kethoxal, reference compound]

>  <inhibition diameters [mm]>
25

$$$$
>  <Compound>
CC(=O)C(O)N1C(=O)C=CC1=O (centres unmarked)

>  <inhibition diameters [mm]>
22

$$$$

---

Entries and their inhibition diameters
Tested on: Candida albicans
Assay: Effect on proliferation of Candida albicans, disk on agar surface (A)
Assay type: cell-based
Details: 50 μliter, 24 hours (*)

>  <Compound>
Nc1nc(=O)[nH]cc1F [5FC, 5 fluorocytosine, reference compound]

>  <System Tested>
Candida albicans

>  <inhibition diameters / mm>
55

$$$$
>  <Compound>
O=C1C=CC(=O)N1 [MALI, maleimide, reference compound]

>  <System Tested>
Candida albicans

>  <inhibition diameters / mm>
30

$$$$
>  <Compound>
C[C@@H]1[C@H](O)[C@@H](C)/C=C/C=C/C=C/C=C/C=C/C=C/C=C/[C@H](O[C@@H]2O[C@H](C)[C@@H](O)[C@H](N)[C@@H]2O)C[C@@H]2O[C@](O)(C[C@@H](O)C[C@@H](O)[C@H](O)CC[C@@H](O)C[C@@H](O)CC(=O)O[C@H]1C)C[C@H](O)[C@H]2C(=O)O [AMP-B, amphotericin-B, reference compound]

>  <System Tested>
Candida albicans

>  <inhibition diameters / mm>
5

$$$$
>  <Compound>
O=CC(=O)c1ccccc1

>  <System Tested>
Candida albicans

>  <inhibition diameters / mm>
8

$$$$
>  <Compound>
O=CC(=O)CCl

>  <System Tested>
Candida albicans

>  <inhibition diameters / mm>
33

$$$$

---

System: Candida albicans
Test: Effect on proliferation of Candida albicans, disk on agar surface (A)
Type: cell-based
Conditions: 20 μliter, 24 hours (*)

>  <Compound>
CC(=O)C=O

>  <System Tested>
Candida albicans

>  <Units Text>
mm

>  <inhibition diameters>
8

$$$$
>  <Compound>
CC(=O)CC(=O)C=O

>  <System Tested>
Candida albicans

>  <Units Text>
mm

>  <inhibition diameters>
31

$$$$
>  <Compound>
O=CC(=O)c1ccccc1

>  <System Tested>
Candida albicans

>  <Units Text>
mm

>  <inhibition diameters>
5

$$$$
>  <Compound>
C[C@@H]1[C@H](O)[C@@H](C)/C=C/C=C/C=C/C=C/C=C/C=C/C=C/[C@H](O[C@@H]2O[C@H](C)[C@@H](O)[C@H](N)[C@@H]2O)C[C@@H]2O[C@](O)(C[C@@H](O)C[C@@H](O)[C@H](O)CC[C@@H](O)C[C@@H](O)CC(=O)O[C@H]1C)C[C@H](O)[C@H]2C(=O)O [AMP-B, amphotericin-B, reference compound]

>  <System Tested>
Candida albicans

>  <Units Text>
mm

>  <inhibition diameters>
2

$$$$
>  <Compound>
CCOC(C)C(=O)C=O (stereo not shown) [KE, kethoxal, reference compound]

>  <System Tested>
Candida albicans

>  <Units Text>
mm

>  <inhibition diameters>
17

$$$$
>  <Compound>
O=CC(=O)C(Cl)Cl

>  <System Tested>
Candida albicans

>  <Units Text>
mm

>  <inhibition diameters>
20

$$$$
>  <Compound>
O=C1C=CC(=O)N1 [MALI, maleimide, reference compound]

>  <System Tested>
Candida albicans

>  <Units Text>
mm

>  <inhibition diameters>
29

$$$$
>  <Compound>
O=CC(=O)CCl

>  <System Tested>
Candida albicans

>  <Units Text>
mm

>  <inhibition diameters>
21

$$$$
>  <Compound>
CC(=O)C(O)N1C(=O)C=CC1=O (stereo not shown)

>  <System Tested>
Candida albicans

>  <Units Text>
mm

>  <inhibition diameters>
18

$$$$
>  <Compound>
Nc1nc(=O)[nH]cc1F [5FC, 5 fluorocytosine, reference compound]

>  <System Tested>
Candida albicans

>  <Units Text>
mm

>  <inhibition diameters>
50

$$$$
